Reported Activity values are given for each entry in this list.
biological target: Protein cereblon/NAD-dependent protein deacylase sirtuin-6 (Homo sapiens, UniProt Q8N6T7+Q96SW2); assay: PROTAC activity at CRBN/SIRT6 in human SK-HEP1 cells assessed as induction of SIRT6 degradation at 5 uM incubated for 36 hrs by In-Cell ELISA relative to control; type: cell-based
Sequence (Q8N6T7 2-355 limits assumed): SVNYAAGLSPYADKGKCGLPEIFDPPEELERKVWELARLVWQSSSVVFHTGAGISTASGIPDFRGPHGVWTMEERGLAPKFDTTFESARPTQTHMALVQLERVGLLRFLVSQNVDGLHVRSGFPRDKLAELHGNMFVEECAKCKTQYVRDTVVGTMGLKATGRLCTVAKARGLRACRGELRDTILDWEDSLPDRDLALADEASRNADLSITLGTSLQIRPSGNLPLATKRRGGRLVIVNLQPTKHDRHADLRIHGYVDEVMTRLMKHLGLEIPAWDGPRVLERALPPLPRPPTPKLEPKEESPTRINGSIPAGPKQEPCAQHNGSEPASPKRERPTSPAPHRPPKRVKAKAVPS
Sequence (Q96SW2 whole entry partner): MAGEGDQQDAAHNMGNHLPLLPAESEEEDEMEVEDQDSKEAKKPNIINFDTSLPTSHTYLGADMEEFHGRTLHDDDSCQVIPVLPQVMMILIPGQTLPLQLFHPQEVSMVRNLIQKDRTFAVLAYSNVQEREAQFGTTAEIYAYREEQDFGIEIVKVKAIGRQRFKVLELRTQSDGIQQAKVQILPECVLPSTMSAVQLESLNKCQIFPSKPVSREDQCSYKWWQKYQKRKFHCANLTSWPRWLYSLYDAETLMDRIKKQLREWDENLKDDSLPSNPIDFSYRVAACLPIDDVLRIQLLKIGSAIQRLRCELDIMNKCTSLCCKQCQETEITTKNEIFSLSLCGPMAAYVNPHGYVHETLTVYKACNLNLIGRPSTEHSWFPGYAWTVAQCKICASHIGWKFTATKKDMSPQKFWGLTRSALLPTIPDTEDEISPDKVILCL

{"Compound": "Nc1cc(N2CCN(C(=O)CNc3cccc4c3C(=O)N(C3CCC(=O)NC3=O)C4=O)CC2)ccc1[N+](=O)[O-] (centres undefined)", "Unit Abbrev": "%", "Activity": 15.4}
{"Compound": "Nc1cc(N2CCN(CCNC(=O)COc3cccc4c3C(=O)N(C3CCC(=O)NC3=O)C4=O)CC2)ccc1[N+](=O)[O-] (centres undefined)", "Unit Abbrev": "%", "Activity": 72.3}
{"Compound": "Nc1cc(N2CCN(CCOCCOCCOCC(=O)Nc3cccc4c3C(=O)N(C3CCC(=O)NC3=O)C4=O)CC2)ccc1[N+](=O)[O-] (centres undefined)", "Unit Abbrev": "%", "Activity": 80.8}
{"Compound": "Nc1cc(N2CCN(CCCC(=O)Nc3cccc4c3C(=O)N(C3CCC(=O)NC3=O)C4=O)CC2)ccc1[N+](=O)[O-] (centres undefined)", "Unit Abbrev": "%", "Activity": 87.3}

----------
Reported Activity values are given for each entry in this list.
biological target: Protein cereblon/NAD-dependent protein deacylase sirtuin-6 (Homo sapiens, UniProt Q8N6T7+Q96SW2); test: PROTAC activity at CRBN/SIRT6 in human SK-HEP1 cells assessed as induction of SIRT6 degradation at 0.5 uM incubated for 36 hrs by In-Cell ELISA relative to control; type: cell-based
Value Kind: Activity (%)

{"Compound": "Nc1cc(N2CCN(CCNC(=O)COc3cccc4c3C(=O)N(C3CCC(=O)NC3=O)C4=O)CC2)ccc1[N+](=O)[O-] (configuration not stated)", "Reported": 85.7}
{"Compound": "Nc1cc(N2CCN(CCCCCC(=O)Nc3cccc4c3C(=O)N(C3CCC(=O)NC3=O)C4=O)CC2)ccc1[N+](=O)[O-] (configuration not stated)", "Reported": 47.8}
{"Compound": "Nc1cc(N2CCN(CCOCCOCCOCCOCC(=O)Nc3cccc4c3C(=O)N(C3CCC(=O)NC3=O)C4=O)CC2)ccc1[N+](=O)[O-] (configuration not stated)", "Reported": 27.8}
{"Compound": "Nc1cc(N2CCN(CCCC(=O)Nc3cccc4c3C(=O)N(C3CCC(=O)NC3=O)C4=O)CC2)ccc1[N+](=O)[O-] (configuration not stated)", "Reported": 72.1}
{"Compound": "Nc1cc(N2CCN(CCCCC(=O)Nc3cccc4c3C(=O)N(C3CCC(=O)NC3=O)C4=O)CC2)ccc1[N+](=O)[O-] (configuration not stated)", "Reported": 18.2}
{"Compound": "Nc1cc(N2CCN(CCC(=O)Nc3cccc4c3C(=O)N(C3CCC(=O)NC3=O)C4=O)CC2)ccc1[N+](=O)[O-] (configuration not stated)", "Reported": 25.6}
{"Compound": "Nc1cc(N2CCN(C(=O)COc3cccc4c3C(=O)N(C3CCC(=O)NC3=O)C4=O)CC2)ccc1[N+](=O)[O-] (configuration not stated)", "Reported": 32.2}

----------
Reported Activity values are given for each entry in this list.
molecular target: Protein cereblon/NAD-dependent protein deacylase sirtuin-6 (Homo sapiens, UniProt Q8N6T7+Q96SW2); experiment: PROTAC activity at CRBN/SIRT6 in human SK-HEP1 cells assessed as induction of SIRT6 degradation at 200 nM incubated for 36 hrs by In-Cell ELISA relative to control; format: cell-based
Value Kind: Activity (%)

{"Molecule": "Nc1cc(N2CCN(CC3CCN(c4ccc5c(c4)C(=O)N(C4CCC(=O)NC4=O)C5=O)C3)CC2)ccc1[N+](=O)[O-] (configuration not stated)", "Value Kind": "Activity", "Unit Abbrev": "%", "Bound Operator": "=", "Reported": 11.9}
{"Molecule": "Nc1cc(N2CCN(CCNCCCC3CCN(c4cc5c(cc4F)C(=O)N(C4CCC(=O)NC4=O)C5=O)CC3)CC2)ccc1[N+](=O)[O-] (configuration not stated)", "Value Kind": "Activity", "Unit Abbrev": "%", "Bound Operator": "=", "Reported": 64.3}
{"Molecule": "Nc1cc(N2CCN(CCNCC3CCN(c4cc5c(cc4F)C(=O)N(C4CCC(=O)NC4=O)C5=O)CC3)CC2)ccc1[N+](=O)[O-] (configuration not stated)", "Value Kind": "Activity", "Unit Abbrev": "%", "Bound Operator": "=", "Reported": 60.5}
{"Molecule": "Nc1cc(N2CCN(CCNCCCC3CCN(c4ccc5c(c4)C(=O)N(C4CCC(=O)NC4=O)C5=O)CC3)CC2)ccc1[N+](=O)[O-] (configuration not stated)", "Value Kind": "Activity", "Unit Abbrev": "%", "Bound Operator": "=", "Reported": 53.2}
{"Molecule": "Nc1cc(N2CCN(CCNCC3CN(c4cc5c(cc4F)C(=O)N(C4CCC(=O)NC4=O)C5=O)C3)CC2)ccc1[N+](=O)[O-] (configuration not stated)", "Value Kind": "Activity", "Unit Abbrev": "%", "Bound Operator": "=", "Reported": 46.1}
{"Molecule": "Nc1cc(N2CCN(CC3CCCN(c4cc5c(cc4F)C(=O)N(C4CCC(=O)NC4=O)C5=O)C3)CC2)ccc1[N+](=O)[O-] (configuration not stated)", "Value Kind": "Activity", "Unit Abbrev": "%", "Bound Operator": "<", "Reported": 10}
{"Molecule": "Nc1cc(N2CCN(CCCC3CCN(c4cc5c(cc4F)C(=O)N(C4CCC(=O)NC4=O)C5=O)CC3)CC2)ccc1[N+](=O)[O-] (configuration not stated)", "Value Kind": "Activity", "Unit Abbrev": "%", "Bound Operator": "=", "Reported": 90.3}

----------
target: Protein cereblon/NAD-dependent protein deacylase sirtuin-6 (Homo sapiens, UniProt Q8N6T7+Q96SW2); test: PROTAC activity at CRBN/SIRT6 in human SK-HEP1 cells assessed as induction of SIRT6 degradation at 0.5 uM incubated for 36 hrs by In-Cell ELISA relative to control; type: cell-based
Reported Activity values are given for each entry in this list.
Value Kind: Activity (%)

{"Compound": "Nc1cc(N2CCN(CCNC(=O)CNc3cccc4c3C(=O)N(C3CCC(=O)NC3=O)C4=O)CC2)ccc1[N+](=O)[O-] (centres undefined)", "Unit Abbrev": "%", "Bound Operator": "=", "Reported": 86.5}
{"Compound": "Nc1cc(N2CCN(CC(=O)Nc3cccc4c3C(=O)N(C3CCC(=O)NC3=O)C4=O)CC2)ccc1[N+](=O)[O-] (centres undefined)", "Unit Abbrev": "%", "Bound Operator": "<", "Reported": 5}
{"Compound": "Nc1cc(N2CCN(CCOCCOCCOCC(=O)Nc3cccc4c3C(=O)N(C3CCC(=O)NC3=O)C4=O)CC2)ccc1[N+](=O)[O-] (centres undefined)", "Unit Abbrev": "%", "Bound Operator": "=", "Reported": 44.9}
{"Compound": "Nc1cc(N2CCN(CCOCCOCC(=O)Nc3cccc4c3C(=O)N(C3CCC(=O)NC3=O)C4=O)CC2)ccc1[N+](=O)[O-] (centres undefined)", "Unit Abbrev": "%", "Bound Operator": "=", "Reported": 46.7}

----------
Reported Activity values are given for each entry in this list.
molecular target: Protein cereblon/NAD-dependent protein deacylase sirtuin-6 (Homo sapiens, UniProt Q8N6T7+Q96SW2); test: PROTAC activity at CRBN/SIRT6 in human SK-HEP1 cells assessed as induction of SIRT6 degradation at 200 nM incubated for 36 hrs by In-Cell ELISA relative to control; assay type: cell-based

{"Compound": "Nc1cc(N2CCN(CC3CCN(c4cc5c(cc4F)C(=O)N(C4CCC(=O)NC4=O)C5=O)CC3)CC2)ccc1[N+](=O)[O-] (configuration not stated)", "Activity": "67.7%"}
{"Compound": "Nc1cc(N2CCN(CCNCC3CCCN(c4ccc5c(c4)C(=O)N(C4CCC(=O)NC4=O)C5=O)C3)CC2)ccc1[N+](=O)[O-] (configuration not stated)", "Activity": "74.2%"}
{"Compound": "Nc1cc(N2CCN(CC3C4CN(c5cc6c(cc5F)C(=O)N(C5CCC(=O)NC5=O)C6=O)CC34)CC2)ccc1[N+](=O)[O-] (configuration not stated)", "Activity": "89.4%"}
{"Compound": "Nc1cc(N2CCN(CCNCCC3CCN(c4ccc5c(c4)C(=O)N(C4CCC(=O)NC4=O)C5=O)CC3)CC2)ccc1[N+](=O)[O-] (configuration not stated)", "Activity": "49.3%"}
{"Compound": "Nc1cc(N2CCN(CC3CN(c4ccc5c(c4)C(=O)N(C4CCC(=O)NC4=O)C5=O)C3)CC2)ccc1[N+](=O)[O-] (configuration not stated)", "Activity": "50.6%"}
{"Compound": "Nc1cc(N2CCN(CCC3CCN(c4ccc5c(c4)C(=O)N(C4CCC(=O)NC4=O)C5=O)CC3)CC2)ccc1[N+](=O)[O-] (configuration not stated)", "Activity": "11.2%"}
{"Compound": "Nc1cc(N2CCN(CCC3CCN(c4cc5c(cc4F)C(=O)N(C4CCC(=O)NC4=O)C5=O)CC3)CC2)ccc1[N+](=O)[O-] (configuration not stated)", "Activity": "< 10%"}
